Could you please report measured Max inhibition (%) (10 µg/mL) of IGF-1-induced proliferation (NCI-H838 cells) for the items listed next?
Target: human IGF1R (insulin-like growth factor 1 receptor) on cells (human, UniProt P08069 31-1367)
Sequence (P08069 31-1367 limits assumed): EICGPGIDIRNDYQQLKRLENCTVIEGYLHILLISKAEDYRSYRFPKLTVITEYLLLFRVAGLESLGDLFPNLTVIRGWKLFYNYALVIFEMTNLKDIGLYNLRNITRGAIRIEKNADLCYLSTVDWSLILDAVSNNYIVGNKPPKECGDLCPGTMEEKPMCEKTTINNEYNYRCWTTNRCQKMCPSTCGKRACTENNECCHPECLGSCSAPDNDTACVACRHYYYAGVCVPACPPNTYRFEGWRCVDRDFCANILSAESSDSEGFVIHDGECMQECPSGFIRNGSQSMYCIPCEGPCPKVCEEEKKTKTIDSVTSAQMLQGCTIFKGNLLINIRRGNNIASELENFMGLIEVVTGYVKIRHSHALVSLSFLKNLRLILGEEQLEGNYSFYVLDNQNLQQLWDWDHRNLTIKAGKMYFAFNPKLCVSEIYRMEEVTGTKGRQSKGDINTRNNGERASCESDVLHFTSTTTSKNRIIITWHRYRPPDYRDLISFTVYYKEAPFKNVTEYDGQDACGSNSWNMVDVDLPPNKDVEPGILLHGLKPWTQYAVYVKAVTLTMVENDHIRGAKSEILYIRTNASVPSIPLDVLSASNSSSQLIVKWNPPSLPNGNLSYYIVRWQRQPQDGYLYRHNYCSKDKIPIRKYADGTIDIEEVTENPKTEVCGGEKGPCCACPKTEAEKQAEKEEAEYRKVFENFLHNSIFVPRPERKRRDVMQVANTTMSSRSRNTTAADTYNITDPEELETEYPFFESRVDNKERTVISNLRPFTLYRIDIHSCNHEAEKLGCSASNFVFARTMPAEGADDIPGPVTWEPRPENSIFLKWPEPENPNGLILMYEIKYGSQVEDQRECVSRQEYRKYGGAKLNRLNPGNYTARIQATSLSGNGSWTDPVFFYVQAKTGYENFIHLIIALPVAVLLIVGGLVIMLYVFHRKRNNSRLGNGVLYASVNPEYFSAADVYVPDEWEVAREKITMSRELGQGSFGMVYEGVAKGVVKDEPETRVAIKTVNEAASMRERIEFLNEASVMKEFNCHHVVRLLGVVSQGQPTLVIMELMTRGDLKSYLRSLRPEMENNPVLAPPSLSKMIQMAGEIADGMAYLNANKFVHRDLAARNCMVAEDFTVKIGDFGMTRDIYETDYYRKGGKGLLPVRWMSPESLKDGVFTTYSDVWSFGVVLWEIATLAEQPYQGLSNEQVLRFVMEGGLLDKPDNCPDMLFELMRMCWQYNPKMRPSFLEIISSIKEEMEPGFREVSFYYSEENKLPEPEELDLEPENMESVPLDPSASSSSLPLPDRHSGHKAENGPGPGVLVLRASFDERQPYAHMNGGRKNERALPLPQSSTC
Experiment: cell-based or functional assay
One number for each entry, in %.

These solved cases illustrate the format of a correct answer.
binder	obs-value
anti-IGF1R antibody 10D1 (antibody, human IgG1, V domains shown) VH: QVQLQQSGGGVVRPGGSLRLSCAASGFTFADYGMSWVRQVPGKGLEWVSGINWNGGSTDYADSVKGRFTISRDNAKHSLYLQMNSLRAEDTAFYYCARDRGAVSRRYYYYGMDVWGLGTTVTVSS VL: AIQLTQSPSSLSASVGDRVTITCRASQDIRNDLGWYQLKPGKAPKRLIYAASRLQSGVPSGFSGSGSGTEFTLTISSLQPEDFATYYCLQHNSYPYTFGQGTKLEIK	117
anti-IGF1R antibody 12A4 (antibody, V domains shown) VH: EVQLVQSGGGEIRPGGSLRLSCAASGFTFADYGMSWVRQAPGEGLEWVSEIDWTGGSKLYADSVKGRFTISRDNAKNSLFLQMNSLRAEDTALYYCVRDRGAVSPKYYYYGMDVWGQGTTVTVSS VL: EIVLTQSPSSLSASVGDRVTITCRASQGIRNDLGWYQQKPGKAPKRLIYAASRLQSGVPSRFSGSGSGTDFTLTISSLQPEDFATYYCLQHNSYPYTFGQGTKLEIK	105
anti-IGF1R antibody 12D1 (antibody, human IgG1, V domains shown) VH: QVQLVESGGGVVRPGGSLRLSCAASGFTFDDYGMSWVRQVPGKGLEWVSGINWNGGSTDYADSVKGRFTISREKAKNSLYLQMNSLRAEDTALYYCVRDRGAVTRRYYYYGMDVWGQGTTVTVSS VL: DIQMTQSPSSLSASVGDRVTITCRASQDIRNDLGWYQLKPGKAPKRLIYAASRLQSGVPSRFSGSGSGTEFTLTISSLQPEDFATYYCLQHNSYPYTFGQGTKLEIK	145

Kindly consider the entry below.
Req: Bench note: what Max inhibition (%) (10 µg/mL) of IGF-1-induced proliferation (NCI-H838 cells) did anti-IGF1R antibody 10G1 (antibody, human IgG1, V domains shown) VH: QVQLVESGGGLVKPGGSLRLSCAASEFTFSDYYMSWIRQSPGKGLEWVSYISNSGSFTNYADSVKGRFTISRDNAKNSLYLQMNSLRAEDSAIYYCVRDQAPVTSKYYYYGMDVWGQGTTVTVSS VL: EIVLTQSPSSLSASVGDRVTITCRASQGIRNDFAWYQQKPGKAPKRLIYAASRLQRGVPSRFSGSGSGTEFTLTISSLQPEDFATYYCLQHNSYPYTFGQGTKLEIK show?
Resp: 88

Source listed as patent US20260258141A1.
